Measured inhibition values are reported for all entries that follow.
# SUBJECT_OF_TEST: Induced myeloid leukemia cell differentiation protein Mcl-1 (Homo sapiens) (UniProt Q07820)
# Sequence (Q07820 whole entry, looked up): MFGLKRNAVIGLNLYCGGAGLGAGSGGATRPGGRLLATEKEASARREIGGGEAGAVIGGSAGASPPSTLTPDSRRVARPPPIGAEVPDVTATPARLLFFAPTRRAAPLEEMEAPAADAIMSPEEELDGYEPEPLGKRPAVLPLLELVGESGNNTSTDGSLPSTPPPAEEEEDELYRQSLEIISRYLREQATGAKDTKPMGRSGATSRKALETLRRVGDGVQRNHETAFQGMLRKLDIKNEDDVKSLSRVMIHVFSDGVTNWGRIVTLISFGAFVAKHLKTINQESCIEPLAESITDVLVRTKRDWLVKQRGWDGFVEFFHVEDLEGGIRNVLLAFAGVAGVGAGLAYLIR
# TEST_DETAILS: disruptors of Mcl-1 and Noxa BH3 peptide – biochemical, TR-FRET, 1536-well, primary screen (AID 1022);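 also: His-tagged Mcl-1 with rhodamine Noxa BH3 peptide and terbium anti-His antibody; 0% = Mcl-1 plus Noxa peptide wells and 100% = peptide-only wells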
# EXPERIMENTAL_CONTEXT: TR-FRET Mcl-1/Noxa peptide binding, 2 h; at 21.7 µM; stronger effect = higher value
Hit rate of the full screen: of about 220,000 compounds, about 3,300 (1.5%) were called active. This excerpt belongs to a sample that is enriched for actives.
Entry rule: numbers only, all in %.

Completed entries (count: 3):
COMPOUND	UNIT_ABBREVIATION	TEST_VALUE
COc1cccc2c(C)c(C(=O)O)[nH]c12	%	83.1
Cc1c(C(=O)N/N=C/c2ccccc2)[nH]c2c([N+](=O)[O-])cccc12	%	21
COc1cccc2c(O)cc(=O)n(C)c12	%	-20.5

Which inhibition value is on record for CCC(=O)N1CCCc2ccccc21 ?
-6.7

Which inhibition value is on record for CC(CCO)Nc1nc2c([nH]1)c(=O)n(C)c(=O)n2C (stereo unspecified) ?
-3.43

Which inhibition value is on record for Cc1ccc(NN=Nc2nc3c([nH]2)c(=O)n(C)c(=O)n3C)cc1 ?
55.6

###

# SUBJECT_OF_TEST: Induced myeloid leukemia cell differentiation protein Mcl-1 (Homo sapiens) (UniProt Q07820)
# TEST_DETAILS: disruptors of Mcl-1 and Noxa BH3 peptide – biochemical, TR-FRET, 1536-well, primary screen (AID 1022);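 also: His-tagged Mcl-1 with rhodamine Noxa BH3 peptide and terbium anti-His antibody; 0% = Mcl-1 plus Noxa peptide wells and 100% = peptide-only wells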
# EXPERIMENTAL_CONTEXT: TR-FRET Mcl-1/Noxa peptide binding, 2 h; at 21.7 µM; stronger effect = higher value
The campaign covered roughly 220,000 compounds. About 3,300 (1.5%) were called active. Shown is part of a subset that was picked to be rich in actives.
ENDPOINT_NAME: inhibition (%)
Entry rule: numbers only, all in %.

Completed entries (count: 5):
O=C1CSC(=S)N1/N=C/c1ccc(O)c([N+](=O)[O-])c1 85.6
Brc1ccc(-c2nnc(-c3ccccc3)o2)o1 8.68
NC(N)=N/N=C/c1ccc(Cl)c([N+](=O)[O-])c1 8.52
N#CCC(=O)N/N=C/c1cn(Cc2ccc3ccccc3c2)c2ccccc12 27.9
Nc1ccc(-c2nnc(-c3ccc(-c4ccccc4)cc3)o2)cc1 65.7

Which inhibition value is on record for CCn1c(CN2C(=O)CSc3ccccc32)n[nH]c1=S ?
-15.7

###

Measured inhibition values are reported for all entries that follow.
# SUBJECT_OF_TEST: Induced myeloid leukemia cell differentiation protein Mcl-1 (Homo sapiens)
# TEST_DETAILS: disruptors of Mcl-1 and Noxa BH3 peptide – biochemical, TR-FRET, 1536-well, primary screen (AID 1022);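 also: His-tagged Mcl-1 with rhodamine Noxa BH3 peptide and terbium anti-His antibody; 0% = Mcl-1 plus Noxa peptide wells and 100% = peptide-only wells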
# EXPERIMENTAL_CONTEXT: TR-FRET Mcl-1/Noxa peptide binding, 2 h; at 21.7 µM; stronger effect = higher value
The whole screen tested about 220,000 compounds, of which about 3,300 (1.5%) were called active. The list comes from a sample in which actives are over-represented; it also holds close analogues and randomly drawn compounds.
Entry rule: numbers only, all in %.

Completed entries (count: 3):
COMPOUND	inhibition, %
Cc1ccc(/C=N/NC(=S)Nc2cccc(S(=O)(=O)N(C)C)c2)o1	-90.2
COc1ccc(CC(=O)Nc2ccccc2NC(=O)c2ccco2)cc1OC	36.8
Nc1ccc(N=Nc2ccccc2Cl)c(N)n1	10.8

Which inhibition value is on record for CC(C)(C)C(=O)CSc1nc2ccccc2o1 ?
8.46

Which inhibition value is on record for COc1ccc2c(CC(=O)OCC(=O)NC(N)=O)coc2c1 ?
8.39

Which inhibition value is on record for O=C(NCc1ccc(F)cc1)C1CCC(CNc2c(N3CCOCC3)c(=O)c2=O)CC1 (stereo unspecified) ?
-8.83
